system.tested: T1, human C5 (human, UniProt P01031 19-673; P01031 678-1676, Beta and alpha chains are disulfide-linked and the protein is glycosylated.)
T1 construct: Either in-house recombinant C5 or plasma derived C5 (CALBIOCHEM) was used; also called recombinant human C5; plasma derived human C5
test.name: Biacore, captured antibody, pH 7.4, 37 C;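 also: biacore binding response of anti-C5 antibody light chain variants captured on chip with human C5 injected, ACES running buffer containing 1.2 mM CaCl₂, parent light chain antibody set to 100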
Can you tell me % binding (parent = 100) for the items I'm about to list?
Reply with just the number (in %).

Which % binding (parent = 100) is listed for CFP0011 11L 50E (antibody, V domains shown) VH: QVQLVQSGAEVKKPGSSVKVSCKASGGTFSSYAISWVRQAPGQGLEWMGGIIPIFGTANYAQKFQGRVTITADESTSTAYMELSSLRSEDTAVYYCARDMSEFLGWSNYYSYPMDVWGQGTTVTVSS VL: DIQMTQSPSSLSASVGDRVTITCRASQSIEDDLAWYQQKPGKAPKLLIYEASSLQSGVPSRFSGSGSGTDFTLTISSLQPEDFATYYCQQSDNSPYTFGQGTKVEIK ?
75.6

Which % binding (parent = 100) is listed for CFP0015 15L 96W (antibody, V domains shown) VH: QVQLLESGGGLVQPGGSLRLSCAASGFTFSSYAMSWVRQAPGKGLEWVSAISGSGGSTYYADSVKGRFTISRDNSKNTLYLQMNSLRAEDTAVYYCARGDQIWYDQWYYFDMWGQGTLVTVSS VL: DIQMTQSPSSLSASVGDRVTITCRASQSIEDDLAWYQQKPGKAPKLLIYEASNLQSGVPSRFSGSGSGTDFTLTISSLQPEDFATYYCQQYDSSPWTFGQGTKVEIK ?
3.6

Data credit: patent US20180016327A1
